- system_name: mNpr1 (Mus musculus, UniProt P18293)
- Construct: host or cells: HEK-293, transient co-transfection with pGS-40F
- Sequence (P18293 29-1057): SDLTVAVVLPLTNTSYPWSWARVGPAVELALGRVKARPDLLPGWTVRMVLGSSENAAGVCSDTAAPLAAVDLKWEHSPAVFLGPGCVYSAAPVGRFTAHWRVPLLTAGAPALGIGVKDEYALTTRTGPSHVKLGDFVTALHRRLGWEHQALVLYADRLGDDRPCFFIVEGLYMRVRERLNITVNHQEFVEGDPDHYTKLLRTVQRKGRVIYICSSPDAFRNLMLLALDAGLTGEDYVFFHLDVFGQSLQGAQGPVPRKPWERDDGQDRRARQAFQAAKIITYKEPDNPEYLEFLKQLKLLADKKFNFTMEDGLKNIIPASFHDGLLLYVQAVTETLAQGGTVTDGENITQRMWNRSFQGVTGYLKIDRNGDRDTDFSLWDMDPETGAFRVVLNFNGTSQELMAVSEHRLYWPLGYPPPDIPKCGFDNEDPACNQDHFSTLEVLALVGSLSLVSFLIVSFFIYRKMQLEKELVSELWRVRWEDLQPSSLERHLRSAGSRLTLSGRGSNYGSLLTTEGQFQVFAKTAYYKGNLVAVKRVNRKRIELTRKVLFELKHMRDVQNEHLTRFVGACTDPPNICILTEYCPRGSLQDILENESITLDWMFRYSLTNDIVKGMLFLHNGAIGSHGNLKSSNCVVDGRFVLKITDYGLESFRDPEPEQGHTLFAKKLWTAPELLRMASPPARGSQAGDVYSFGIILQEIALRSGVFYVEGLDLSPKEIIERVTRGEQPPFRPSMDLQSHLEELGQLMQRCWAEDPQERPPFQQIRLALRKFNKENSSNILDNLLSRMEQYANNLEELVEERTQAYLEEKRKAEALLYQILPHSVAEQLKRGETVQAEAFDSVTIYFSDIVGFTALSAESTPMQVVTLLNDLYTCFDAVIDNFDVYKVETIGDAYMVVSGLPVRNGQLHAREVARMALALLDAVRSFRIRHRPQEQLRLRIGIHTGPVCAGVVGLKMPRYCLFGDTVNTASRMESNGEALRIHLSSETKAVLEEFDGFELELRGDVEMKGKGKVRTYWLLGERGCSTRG
- test_description: GloSensor assay, HEK-293 cells transiently expressing mNpr1 and pGS-40F
- Assay type: cell-based
- details: calculated with Cheng-Prusoff equation from Table 6; read-out: Ki mNpr1 GloSensor™ [μM] (mean ± SEM)
reported_property: Ki (µM)
Only the number, expressed in µM, is required.

Ask: # return recorded Ki for entry N#Cc1ccccc1CN1CCCC(C(=O)NCc2ccccc2)CCNC(=O)CC1 (stereo not shown) [JS-13]
Result: 0.21

Ask: # return recorded Ki for entry Cc1nn2c(c1-c1ccccc1Oc1ccccc1)N(C(=O)Cc1ccc3c(c1)OCO3)CCC2 [JS-10]
Result: 0.31

Ask: # return recorded Ki for entry Cc1cc(CNC(=O)c2ccc3c(c2)n(CC2CC2)c(=O)n3C2CCCCC2)on1 [JS-11]
Result: 0.1

Ask: # return recorded Ki for entry Cc1noc(C)c1-c1cc(-c2ccccc2Oc2ccccc2)cn2cncc12 [JS-5]
Result: 0.42

Ask: # return recorded Ki for entry Cc1nn2c(c1-c1ccccc1OCc1ccccc1)N(C(=O)Cc1ccc3c(c1)OCO3)CCC2 [JS-8]
Result: 0.1

Ask: # return recorded Ki for entry CN(Cc1ccccc1)C(=O)c1cn2ccnc(-c3ccccc3)c2n1 [JS-14]
Result: 0.32

Ask: # return recorded Ki for entry COc1cc(CN2CCC(C)(NC(C)=O)CC2)cc(-c2ccncc2)c1 [JS-4]
Result: 0.22

These entries and their values trace back to patent US11324725B2.
